Values from paper PMC9052545

Assignment: determine reported Kd for the given substances.
- system: HER2-Fc (HER2) (Homo sapiens)
- conditionDetails: SEM, n = 3

Worked examples, 3 substances total:
FN3 with YCPVCM grafted at residues 51-56 (His-tagged) [FN3-p1.M.3]; 0.11 µM
FN3 with YCICCM grafted at residues 51-56 (His-tagged) [FN3-p1.M.1]; 0.068 µM
FN3 with YCGCEM grafted at residues 51-56 (His-tagged) [FN3-p1]; 0.28 µM

Now take the following substance into account.
Lookup result for FN3 with RKPKSG grafted at residues 51-56 (His-tagged) [FN3-p4.4] ; measured Kd: 0.5 µM
